# Tested on: Influenza A virus
# Method: Antiviral activity against amantadine-resistant Influenza A virus (A/WSN/1933) infected in MDCK cells preincubated for 30 mins followed by viral infection measured after 72 hrs by CCK-8 assay
# Type: functional, organism-based
# Study Conditions: A/WSN/1933(H1N1)
Activity calls are given as the source filed them. No cut-off for these calls is given here.
Property Name: Activity

[[record]]
compound = "C[C@H]1[C@H]([C@H](C)N)C[C@@H]2C[C@H]1C2(C)C"
subject_of_test = "Influenza A virus"
result = "inactive"

[[record]]
compound = "CC1(C)[C@@H]2CC[C@@]1(C)[C@@H](N)C2 (relative stereo)"
subject_of_test = "Influenza A virus"
result = "inactive"

[[record]]
compound = "C[C@H]1[C@H](CN)C[C@@H]2C[C@H]1C2(C)C"
subject_of_test = "Influenza A virus"
result = "inactive"

